# test name: antimalarial activity against Dd2 strain (AID 2302);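 note: 0% = DMSO untreated growth and 100% = chloroquine plus artemisinin killed control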
# condition details: P. falciparum Dd2 in RBCs, LDH growth readout, 72 h; at 2 µM; active compounds read high
reported endpoint: growth inhibition (%)

compound=Cc1cc(N2Cc3ccccc3C2)nc(Nc2ccc(S(=O)(=O)N3CCOCC3)cc2)n1 numeric_result=85
compound=Oc1cccc(Nc2ccnc3cc(-c4ccccn4)ccc23)c1 numeric_result=98
compound=COc1ccccc1CCCN1C(=O)C(c2ccccc2)(c2ccccc2)N=C1N numeric_result=99
compound=COc1ccc2nccc([C@@H](O)CN3CCC(NCc4cc5ccc(Cl)cc5[nH]4)CC3)c2c1 numeric_result=61
compound="COc1ccc(C2CCC(NCCCCNC(=O)c3ccc(NC(=O)c4ccc(Cl)cc4)cc3)CC2)cc1 (centres undefined)" numeric_result=7
compound=CCCNc1nc(Nc2ccccc2C)nc2ccccc12 numeric_result=64
compound=CCN1CCN(c2cc(C)c3cc(NC(=O)c4cncc(Br)c4)ccc3n2)CC1 numeric_result=63
compound=O=C(Nc1ccc(F)c(C(F)(F)F)c1)NC1CCN(CCCCCNC(=O)[C@@H]2C[C@H]2c2ccc(Cl)c(Cl)c2)CC1 numeric_result=16
compound=CCOc1cc(NC(=O)Nc2ccnc3ccccc23)cc(OC)c1 numeric_result=73
compound="CN1CCC(Oc2ccc(CN3CC[C@H](NC(=O)c4ccc(Cl)c(Cl)c4)C3)cc2Cl)C1 (some centres undefined)" numeric_result=78
compound=Cc1nn(-c2cccc(C(F)(F)F)c2)c2sc(C(=O)NC3CCN(C(C)C)CC3)cc12 numeric_result=20
compound=CCOC(=O)c1ccc(-c2cnc(N)c(-c3nc4c(C)cccc4[nH]3)c2)cc1 numeric_result=79
compound=Oc1ccc(Cc2cc(Oc3c(I)cc(CCc4ncc[nH]4)cc3I)ccc2O)cc1 numeric_result=32
compound=CCN(CC)c1ccc2nc(N)nc(N)c2c1Cl numeric_result=1
compound=COc1ccc2nccc([C@@H](O)CN3CCC(NCc4ccc(OC)c(NC(C)=O)c4)CC3)c2c1 numeric_result=0
compound="CN(C)Cc1ccc(-c2cccc(Nc3nccc(NCC(O)c4ccccc4)n3)c2)cc1 (centres undefined)" numeric_result=100
compound=Clc1ccc(Cl)c2[nH]c(CNCCCNc3nc4ccccc4[nH]3)cc12 numeric_result=39
compound=CC(C)CNCc1cccc(-c2ccccc2CN(C(=O)NCCc2ccccc2)C2CCN(Cc3ccccc3)CC2)c1 numeric_result=82
compound="CCCC(=O)NC(c1ccc(C)cc1)c1ccc2cccnc2c1O (centres undefined)" numeric_result=45
compound="OC1CCCN(Cc2cccc(-c3ccc(-c4nc5ccc(F)cc5[nH]4)cc3)c2)C1 (centres undefined)" numeric_result=42
compound=CC(C)N(Cc1ccc(-c2ccc(C(F)(F)F)cc2)cc1)C(=O)Cn1c(CCc2cccc(F)c2F)cc(=O)c2ccc(CCCN3CCCCC3)cc21 numeric_result=82
compound=N#Cc1ccc(-c2ccc(C(=O)NCCCCN3CCC(c4cc(Br)c5c(c4OCC(N)=O)CCCC5)CC3)cc2)cc1 numeric_result=89
compound=Cc1ccc(CON2C(N)=NC(N)=NC23CCCCC3)c2ccccc12 numeric_result=56
compound="O=C(O)C1Cc2c([nH]c3ccccc23)C(c2ccc(Cl)cc2Cl)N1 (centres undefined)" numeric_result=100
compound=O=C(Nc1ccc(Cl)c(Cl)c1)N1CCc2ccc(OCCCN3CCCCC3)cc2CC1 numeric_result=-2
compound=COc1cc(NC(=O)/C=C/c2cc(F)cc(F)c2F)cc(OCCN2CCN(CCN3CCOCC3)CC2)c1 numeric_result=94
compound=Clc1cccc(Nc2ccc3c(N4CCCCC4)ncnc3n2)c1 numeric_result=93
compound="COc1cccc(C(=O)NC(c2ccc(Cl)cc2Cl)c2cc(Cl)c3cccnc3c2O)c1 (centres undefined)" numeric_result=76
compound=CC(=O)N(C)c1cccc(C(=O)Nc2ccc(-c3cccc(-c4nc5c(C)cccc5[nH]4)c3)cc2)c1 numeric_result=68
compound=CC[C@H](C)CNC(=O)c1cncc(-c2cccc(CNC3Cc4ccccc4C3)c2)c1 numeric_result=76
compound=CC(=O)Nc1ncc(C(=O)Nc2ccc(-c3cccc(-c4nc5ccc(C(F)(F)F)cc5[nH]4)c3)cc2)s1 numeric_result=92
compound=Cc1ccc(S(=O)(=O)N(CCCN2CCN(C)CC2)Cc2csc(-c3ccc(CNCc4ccccc4)cc3)n2)cc1 numeric_result=90
compound=CCC(CC)n1c(COC)cc2c3c(N)nc(N)nc3ccc21 numeric_result=0
compound="CC(O)C1CCCCN1C(=O)c1cccc(-c2cccc(-c3nc4ccc(C(F)(F)F)cc4[nH]3)c2)c1 (centres undefined)" numeric_result=100
compound=COc1cc(NC(=O)Nc2ccnc3ccccc23)cc(OC)c1 numeric_result=34
compound=CN(Cc1cccc(C#N)c1)C1CCN(c2cc(NC(=O)c3cccc(F)c3)ccn2)CC1 numeric_result=15
compound=COc1cc2nc(N3CCC(CNC(=O)c4ccc(-c5ccc(-c6noc(C)n6)cc5C)cc4)CC3)nc(N)c2cc1OC numeric_result=99
compound=O=C(C=Cc1ccccc1)Nc1ccc(C#CC=Cc2ccc(NC(=O)C=Cc3ccccc3)cc2)cc1 numeric_result=3
compound=OCc1ccc(-c2cncc(Nc3cccc(Cl)c3)c2)cc1 numeric_result=100

---

growth inhibition values for the compounds below.
# test name: inhibition of 3D7 malaria parasite growth – strain 3D7 (AID 2306);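 note: 0% = DMSO wells and 100% = chloroquine plus artemisinin control wells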
# condition details: P. falciparum 3D7 erythrocytic growth, LDH absorbance, 72 h; at 2 µM; active compounds read high
reported endpoint: growth inhibition (%)

molecule=Cc1ccccc1C(=O)Nc1cccc(-c2nc3ncccn3c2C)c1 unit_symbol=% numeric_result=94
molecule=COc1ccc(-c2csc(N(CCCN(C)C)C(=O)c3cc4c(C)nn(-c5ccccc5)c4s3)n2)cc1 unit_symbol=% numeric_result=102
molecule=N#Cc1ccc(-c2ccc3nc(N4CCCN(C5CCC5)CC4)ccc3c2)cc1 unit_symbol=% numeric_result=96
molecule=CC(C)c1cccc(OCC2CCN(c3ncc(C(=O)Nc4ccccc4)cc3Cl)CC2)c1 unit_symbol=% numeric_result=89
molecule=c1ccc(-c2cc(NCCCCNc3cc(-c4ccccc4)nc4ccccc34)c3ccccc3n2)cc1 unit_symbol=% numeric_result=102

---

# test name: inhibition of 3D7 malaria parasite growth – strain 3D7 (AID 2306);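 note: 0% = DMSO wells and 100% = chloroquine plus artemisinin control wells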
# condition details: P. falciparum 3D7 erythrocytic growth, LDH absorbance, 72 h; at 2 µM; active compounds read high
reported endpoint: growth inhibition (%)

molecule=CC(C)c1ccc(CN2CCC(NC(=O)c3ccc(-c4ccccc4F)s3)CC2)cc1 reported_endpoint="growth inhibition" numeric_result=81
molecule="Nc1c(Cl)cc(C(O)CNCCCCCOCCc2ccccc2)cc1C(F)(F)F (centres undefined)" reported_endpoint="growth inhibition" numeric_result=99
molecule=Cn1c(Nc2cc(C(C)(C)C)on2)nc2cc(Nc3ccnc(Nc4ccc(CS(C)(=O)=O)cc4)n3)ccc21 reported_endpoint="growth inhibition" numeric_result=101
molecule=CCc1ccc(-c2cnc(N)c3cc(-c4ccnc(N)n4)ccc23)cc1 reported_endpoint="growth inhibition" numeric_result=92
molecule=CN(CCN)Cc1cccc(-c2cccc(-c3nc4ccc(C(F)(F)F)cc4[nH]3)c2)c1 reported_endpoint="growth inhibition" numeric_result=99
molecule=COc1ccc(-c2cccc(NC(=O)c3ccc(Cl)cc3)c2)cc1CN1CCNCC1 reported_endpoint="growth inhibition" numeric_result=96
molecule="Cn1c2c(c3ccccc31)CN(CCC1(c3ccc(Cl)c(Cl)c3)CN(C(=O)Cc3ccccc3)CCO1)CC2 (centres undefined)" reported_endpoint="growth inhibition" numeric_result=95
molecule=Oc1ccc(CCCNc2nc(NCc3cccc4ccccc34)nc(NC3CCNCC3)n2)cc1 reported_endpoint="growth inhibition" numeric_result=91
molecule=c1ccc(CN2CCC(NCc3ccccc3-c3cccc(CNC4CCCC4)c3)CC2)cc1 reported_endpoint="growth inhibition" numeric_result=101

---

inhibition values for the compounds below.
# target under test: L-lactate dehydrogenase (Plasmodium falciparum (isolate CDC / Honduras)) (UniProt Q27743)
# Sequence (Q27743 whole entry, looked up): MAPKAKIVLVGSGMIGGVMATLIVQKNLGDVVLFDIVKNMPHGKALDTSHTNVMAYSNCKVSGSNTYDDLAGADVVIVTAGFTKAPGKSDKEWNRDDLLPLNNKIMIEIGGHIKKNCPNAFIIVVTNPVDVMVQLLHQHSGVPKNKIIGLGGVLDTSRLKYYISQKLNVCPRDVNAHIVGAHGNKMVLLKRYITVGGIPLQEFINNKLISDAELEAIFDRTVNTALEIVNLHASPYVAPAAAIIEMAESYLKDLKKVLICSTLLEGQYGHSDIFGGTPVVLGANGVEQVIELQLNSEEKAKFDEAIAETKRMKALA
# test name: PfLDH activity inhibition – cell lysate, 3D7 strain, counter-screen for P. falciparum growth inhibition project (AID 2304);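 note: 0% = vehicle and 100% = reference inhibitor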
# condition details: P. falciparum 3D7 crude extract, LDH APAD/NBT absorbance; at 2 µM; active compounds read high
reported endpoint: inhibition (%)

compound=CCCN=CNc1cc(-c2csc(N=C(N)N)n2)cc([N+](=O)[O-])c1 numeric_result=-3
compound=COc1cccc(NC(=O)Nc2ccc(Nc3nc(C)cc(N(C)C)n3)cc2)c1 numeric_result=5
compound=CN1CCC(NCc2cccc(-c3ccc(S(=O)(=O)NCCc4ccccn4)c(F)c3)c2)CC1 numeric_result=7
compound="CC1CN(c2cc(=O)n(Cc3ccc(NC(=O)Nc4ccc(-c5ccccc5)cc4)cc3)cn2)CC(C)N1 (stereo not drawn)" numeric_result=-1
compound=CC(=O)N/N=C/[C@H](CCc1ccccc1)NC(=O)[C@H](CC(C)C)NC(=O)c1ccc(F)cc1 numeric_result=-4
compound=CC(C)CNCc1cccc(-c2cccc(CN(CCCN3CCN(C)CC3)C(=O)NC3CCCCC3)c2)c1 numeric_result=0
compound=CNCCNCc1ccc(-c2ccc(-c3nc4ccc(F)cc4[nH]3)cc2)cc1 numeric_result=4
compound=Cn1cc(C2CCN(CCCCCNC(=O)/C=C/c3ccc(Cl)c(Cl)c3)CC2)c2cc(O)ccc21 numeric_result=-2
compound=COc1ccc(Cl)cc1N1CCN(CCCNC(=O)c2ccc(-c3nc4ccc(C(F)(F)F)cc4[nH]3)c(C)c2)CC1 numeric_result=-2
compound=Cn1nc(-c2ccc(Cl)cc2)c2cc(C(=O)NCCN3CCOCC3)sc21 numeric_result=-8
compound=Cc1cc(N(C)CCCN(C)C)nc(Nc2ccc(Br)cc2)n1 numeric_result=1
compound=CN1CCCN(Cc2ccc(-c3ccc(NS(=O)(=O)c4cccc5cccnc45)cc3)cc2)CC1 numeric_result=5
compound=OCc1c(Cl)cc(Cl)cc1CNCCCNc1nc2ccccc2[nH]1 numeric_result=-2
compound=Nc1nc(Nc2cccc(O)c2)nc2ccccc12 numeric_result=4
compound="CC1Cc2ccccc2N1CC(=O)Nc1cc(C(F)(F)F)ccc1-n1cncn1 (stereo not drawn)" numeric_result=1
compound=CN1CCc2ccc(NC(=O)Nc3ccc(-c4ccccc4)cc3)cc2C1 numeric_result=3
compound=COc1ccc(CNCc2ccc(-c3ccc(-c4nc5ccc(F)cc5[nH]4)cc3)cc2)cc1 numeric_result=5
compound=CC(C)(C)OC(=O)NCc1ccc(Nc2nnc(-c3cccc(OCC(=O)NCc4cc(C(F)(F)F)cc(C(F)(F)F)c4)c3)o2)cc1 numeric_result=1
compound="CCCCCC(=O)N1CCOC(CCN2CCc3c(c4ccccc4n3C)C2)(c2ccc(Cl)c(Cl)c2)C1 (stereo not drawn)" numeric_result=1
compound=O=C(Nc1cccc(CN2CCCN(CC3CC3)CC2)c1)c1ccc(-c2ccccc2)cc1 numeric_result=6
compound=COc1ccc2nccc([C@@H](O)CN3CCC(NCc4nc5cc(F)ccc5o4)CC3)c2c1 numeric_result=-8
compound="O=C(Nc1ccc(OC(F)(F)F)cc1)NC1CCN(c2ccnc3ccccc23)C1 (stereo not drawn)" numeric_result=1
compound="COc1ccccc1/C=C/C(=O)N(C)C1CCN(CCCCCNC(=O)/C=C/c2ccc(Cl)c(Cl)c2)C1 (stereo not drawn)" numeric_result=-14
compound=COc1ccc(CNCCCCCCCNCc2ccc(Cl)c(Cl)c2)cc1Cl numeric_result=4
compound=CCCCc1ccc2[nH]cc(C(=O)OCC)c(=O)c2c1 numeric_result=5
compound=Cc1cc2c(cc1C(F)(F)F)N(C(=O)Nc1cc(OCCN(C(C)C)C(C)C)cc(C(F)(F)F)c1)CC2 numeric_result=-2
compound="CCC(C)NS(=O)(=O)c1ccc2nc(Nc3ccc(C)c(Cl)c3)n(C(C)C(C)C)c2c1 (stereo not drawn)" numeric_result=1
compound=COc1ccc(CNCCc2cccs2)cc1-c1ccc(S(=O)(=O)NCCN2CCCC2)cc1 numeric_result=4
compound=Cc1cccc2[nH]c(-c3ccc(-c4cccc(NC(=O)CCc5cnc[nH]5)c4)s3)nc12 numeric_result=-4
compound=COc1cccc2sc(N3CCN(C(=O)c4ccc([N+](=O)[O-])o4)CC3)nc12 numeric_result=1
compound=Cc1noc(C)c1-c1cccc(CNCc2cccc(-c3cccc(-c4nc5ccc(C(F)(F)F)cc5[nH]4)c3)c2)c1 numeric_result=5
compound=CCN1CCC(NCc2ccc(-c3ccc(Cl)cc3)cc2)CC1 numeric_result=-2
compound="N[C@@H](Cc1ccc(O)cc1)C(=O)NC(c1ccccc1)c1c(O)ccc2ccccc12 (stereo partly drawn)" numeric_result=2
compound=CCOC(=O)CNC(=O)N(CCN(Cc1ccccc1)C(=O)NCC(=O)OCC)Cc1ccccc1 numeric_result=5
compound="COc1ccc2nccc([C@@H](O)CN3CCC(NCC(O)Cc4ccccc4)CC3)c2c1 (stereo partly drawn)" numeric_result=-3
compound="CC(C)CCN1CCC(Oc2ccc(NC(=O)c3ccc4ncccc4c3)cc2Cl)C1 (stereo not drawn)" numeric_result=-4
compound=N#Cc1ccc(N2CCN(Cc3ccc(-c4cccc(-c5nc6ccccc6[nH]5)c4)cc3)CC2)nc1 numeric_result=-1
compound="CC(C)CN1C(=O)c2ccccc2C(C(=O)Nc2cccc(C#N)c2)C1c1cccs1 (stereo not drawn)" numeric_result=-4
